# Organism: Homo sapiens
# test details: Activation of human recombinant AMPK alpha2/beta1/gamma1 using substrate-1 peptide as substrate incubated for 45 mins in presence of ATP by HTRF assay relative to negative control
# condition label: filed as activator
measured attribute: fold change (FC)

Worked examples, 4 compounds total:
>>> df
                                        smi  measured_attribute  recorded_result
0  N#Cc1c(O)c2c(-c3ccc(-c4ccccc4O)cc3)csc2[nH]c1=O    fold change (FC)              4.2
1  CC1(C)[C@@H](O)[C@H](O)C[C@]2(C)[C@H]3C[C@@H](O)[C@@H]4[C@@H]([C@@](C)(O)CCCNCc5ccccn5)CC[C@@]4(C)[C@]3(C)CC[C@@H]12    fold change (FC)                3
2  COc1ccc(CNCCC[C@](C)(O)[C@H]2CC[C@]3(C)[C@@H]2[C@H](O)C[C@@H]2[C@@]4(C)C[C@@H](O)[C@H](O)C(C)(C)[C@@H]4CC[C@]23C)cc1OC    fold change (FC)              2.8
3  C[C@H](NCCC[C@](C)(O)[C@H]1CC[C@]2(C)[C@@H]1[C@H](O)C[C@@H]1[C@@]3(C)C[C@@H](O)[C@H](O)C(C)(C)[C@@H]3CC[C@]12C)c1ccccc1    fold change (FC)              2.8

API: the following record is the query input.
For reference, reported fold change (FC) for CC1(C)[C@@H](O)[C@H](O)C[C@]2(C)[C@H]3C[C@@H](O)[C@@H]4[C@@H]([C@@](C)(O)CCCNCCCc5ccccc5)CC[C@@]4(C)[C@]3(C)CC[C@@H]12 stands at 2.7
